- ASSAY METHOD TEXT: Vibrio cholerae motility inhibitors, OD read-out (AID 588778)
- CONDITION INFO: measured here: bacterial viability at 10 ug/mL, stronger effect = higher value
Among all 10,000 compounds or so, fewer than 10 were called active. Only a sample is shown.
I'd appreciate it if you could supply inhibition values for the items below.
Answers are plain numbers, in %.

Sample answers from the record:
COMPOUND	MEASURED QUANTITY	READING
CC1=C(C(=O)Nc2nc3ccccc3s2)C(c2ccc(F)cc2)C2=C(CCCC2=O)N1 (stereo unspecified)	inhibition	0.795
S=C(NCc1ccco1)NNC(=S)Nc1ccc(Cl)cc1	inhibition	5.16
CCOC(=O)N1CCN(C(=O)c2ccc(C#CC3(O)CCCCC3)cc2)CC1	inhibition	-5.67
OC(COCc1ccc(Cl)cc1)CN1CCN(c2cccc(Cl)c2)CC1 (stereo unspecified)	inhibition	11.7
O=C1C(c2ccccn2)=C(O)c2ccccc21	inhibition	4.31

Please report inhibition for every entry that follows.
1. COc1cc(NC(=O)CS)cc(OC)c1
2. CC(=O)c1cccc(NC(=O)C2CC(=O)N(Cc3ccccc3)C2)c1 (stereo unspecified)
3. O=C(NC(=O)c1ccccc1)Nc1ccc(Br)cc1
4. Cc1c(NC(=O)C2CC(c3c(F)cccc3Cl)=NO2)c(=O)n(-c2ccccc2)n1C (stereo unspecified)
5. CCN(CC)c1ccc(CNC(C)C(O)c2ccccc2)cc1 (stereo unspecified)
6. O=C(NC(=S)Nc1ccccc1C(=O)NC1CCCCC1)c1ccco1

1: -11; 2: -3.46; 3: -9.72; 4: -4.39; 5: 5.6; 6: 7.92

----------
I'd appreciate it if you could supply inhibition values for the items below.
- ASSAY METHOD TEXT: Vibrio cholerae motility inhibitors, OD read-out (AID 588778)
- CONDITION INFO: stronger effect = higher value, concentration not given here
Screen size: about 10,000 compounds; fewer than 10 were called active. These entries were drawn from the full list.
Answers are plain numbers, in %.

COMPOUND	MEASURED QUANTITY	MEASURE UNIT	READING
CC12CCC(C(=O)NCc3ccccc3Cl)(CC1=O)C2(C)C (stereo unspecified)	inhibition	%	7.42
CC(NC(=O)c1ccco1)c1ccc(I)cc1 (stereo unspecified)	inhibition	%	15.8
O=C(NC(=O)C(Cl)(Cl)Cl)NC1CCCC1	inhibition	%	-16.4
O=C(CC(NCc1ccccn1)C(=O)O)Nc1ccc(Cl)cc1 (stereo unspecified)	inhibition	%	4.17

Please report inhibition for every entry that follows.
1. Cc1cc(NC(=O)c2ccccc2Cl)c(OC(=O)c2ccccc2Cl)cc1C
2. COc1ccc(OC)c(NC(=O)Cn2c(C)ccc2C)c1
3. C=C1C2(C(=O)Nc3nc4ccc(Br)cc4s3)CCC(C2)C1(C)C (stereo unspecified)
4. c1cncc(Nc2nc(-c3cccs3)cs2)c1
5. CSc1cccc(NC(=O)Cn2c(C)c(C=O)c3ccccc32)c1
6. Cn1nc([N+](=O)[O-])nc1Sc1nnc(-c2cccnc2)o1
7. Cc1c(NC(=O)c2nn3c(C(F)(F)F)c4c(nc3c2Cl)-c2ccccc2CC4)c(=O)n(-c2ccccc2)n1C

-5.73
5.31
-2.38
13.2
20.7
44.4
-11.3

Please report inhibition for every entry that follows.
1. Cc1cc2[nH]c(=S)n(Cc3ccccc3Cl)c2cc1C
2. COc1cc(OC)c(NC(=O)c2csc3ccccc23)cc1Cl

1. -26.6
2. 4.43

Please report inhibition for every entry that follows.
1. COc1cc2c(NCc3ccccc3)cc(O)c(CC(=O)Nc3ccc(Cl)cc3)c2cc1OC
2. CN1CCN(C(=O)c2ccccc2NC(=O)Nc2ccccc2)CC1
3. O=C(O)CCc1ccc(-c2cccs2)n1-c1cc(Cl)ccc1Cl

1. 8.57
2. 15.9
3. 5.81

Please report inhibition for every entry that follows.
1. O=C(c1cccs1)N1C(=O)c2cccc3c(S(=O)(=O)N4CCCC4)ccc1c23
2. CC(C)(NO)C(=O)c1ccc(Cl)cc1

[11.6, 1.66]

Please report inhibition for every entry that follows.
1. O=C(Oc1ccccn1)C1COc2ccccc2O1 (stereo unspecified)
2. O=C(CCCOc1ccc(Cl)cc1Cl)N1CCN(Cc2ccc3c(c2)OCO3)CC1
3. Cc1ccc2c(c1)C(=O)C(=O)N2

1. -4.64
2. 15.4
3. 26.8

----------
- ASSAY METHOD TEXT: Vibrio cholerae motility inhibitors, OD read-out (AID 588778)
- CONDITION INFO: measured here: bacterial viability at 10 ug/mL, stronger effect = higher value
Screen size: about 10,000 compounds; fewer than 10 were called active. Not all results are given here.
MEASURED QUANTITY: inhibition (%)
Give bare numbers, in %.

Sample answers from the record:
COMPOUND	MEASURE UNIT	inhibition
O=C(CC(NC(=S)Nc1ccccc1)c1ccccc1)c1ccccc1 (stereo unspecified)	%	5.66
COc1ccc(C(=O)NCc2ccoc2C(=O)O)cc1	%	8.04
CCn1ccc(C(=O)Nc2ccc(C(F)(F)F)cc2Cl)n1	%	-1.52

Please report inhibition for every entry that follows.
1. CCOc1ccc2nc(SCC(=O)Nc3ccc4c(c3)OCO4)[nH]c2c1
2. COC(=O)C1=C(C)NC(C)=C(C(=O)OC)C1c1sccc1C
3. COc1ccc(C(=O)CSc2nc(=O)cc(N)n2-c2ccc(C)cc2)cc1OC
4. Cc1cc(NC(=O)COc2cc(C)c(Cl)c(C)c2)no1

[2.6, -0.13, -11.4, -7.52]

Please report inhibition for every entry that follows.
1. O=C(c1c(F)cccc1F)N1CCN(C(c2ccccc2)c2ccccc2)CC1
2. O=C(NCc1ccc(-c2nc3ccccc3s2)cc1)c1ccc(Br)o1

[-2.62, 9.78]

Please report inhibition for every entry that follows.
1. O=C(CSCc1ccc([N+](=O)[O-])cc1)N1CCN(c2cccc(Cl)c2)CC1
2. CCCC(=O)N1CCN(c2ccc(NC(=O)COc3ccc(C)c(C)c3)cc2Cl)CC1
3. CCN1C(=O)Cc2cc(S(N)(=O)=O)ccc21
4. COc1ccc2[nH]cc(CCNS(=O)(=O)Cc3ccccc3)c2c1
5. COc1cc(OC)c(NC(=O)c2csc3ccccc23)cc1Cl

1. -3.47
2. 4.97
3. 0.76
4. 0.04
5. 1.11

Please report inhibition for every entry that follows.
1. COc1c(S(=O)(=O)N2CCCN(S(=O)(=O)c3ccc(Cl)c(Cl)c3OC)CC2)ccc(Cl)c1Cl
2. CC12CCC(C(=O)NCc3ccc4c(c3)OCO4)(c3nc4ccccc4nc31)C2(C)C (stereo unspecified)
3. C#CCOc1c(Br)cc(/C=C/[N+](=O)[O-])cc1OC

1: 22.4; 2: 0.26; 3: 7.02

----------
I'd appreciate it if you could supply inhibition values for the items below.
- ASSAY METHOD TEXT: Vibrio cholerae motility inhibitors, OD read-out (AID 588778)
- CONDITION INFO: stronger effect = higher value, concentration not given here
Hit rate of the full screen: of about 10,000 compounds, fewer than 10 were called active. Not all results are given here.
One number for each entry, in %.

Sample answers from the record:
COMPOUND	inhibition (%)
Cc1ccc(F)c(NC(=O)CN2C(=O)CSc3ccccc32)c1	16.3
CCCCC(=O)Nc1ccc(NC(=O)C(Cl)(Cl)Cl)cc1OC	3.09
COCc1cc(CN2CCCCC2)c(O)c2ncccc12	34

// switching to the query compound
Entry COc1ccc(C2/C(=C(\O)c3ccc(C)cc3)C(=O)C(=O)N2c2ncc(S(=O)(=O)c3ccc([N+](=O)[O-])cc3)s2)cc1 (centres undefined) has what inhibition? -0.505

----------
- ASSAY METHOD TEXT: Vibrio cholerae motility inhibitors, OD read-out (AID 588778)
- CONDITION INFO: measured here: bacterial viability at 10 ug/mL, stronger effect = higher value
The whole screen tested about 10,000 compounds, of which fewer than 10 were called active. These entries were drawn from the full list.
MEASURED QUANTITY: inhibition (%)
Answers are plain numbers, in %.

MOLECULE	READING
CCOc1ccc(-n2nc3ccc(NC(=S)NC(=O)CC)cc3n2)cc1	-6.24
O=C(CCOc1ccccc1)Nc1ccc(Br)cc1	-6.95
COC(=O)C1=CN(c2ccc(F)c(F)c2)C=C(C(=O)OC)C1c1cc(OC)ccc1OC	-3.16
CCOC(=O)c1nnc2ccnn2c1N	-4.37
COCc1cc(CN2CCCCC2)c(O)c2ncccc12	5.26
O=C(OCc1ccccc1F)c1ccc([N+](=O)[O-])cc1Cl	18.5

Please report inhibition for every entry that follows.
1. O=C(c1cccs1)N1C(=O)c2cccc3c(S(=O)(=O)N4CCCC4)ccc1c23
2. O=C(NC(=S)Nc1ccc(Cl)cc1C(F)(F)F)c1ccccc1I
3. COc1ccc(NC(=S)Nc2ccccc2OC(F)F)cc1OC
4. O=C(O)c1ccc(NC(=O)c2ccc(Cl)cc2)c(NC(=O)c2ccc(Cl)cc2)c1
5. COc1ccc(C(=O)ON2C(=O)CCC2=O)cc1I

-0.47
-8.11
-5
-2.21
-0.225

Please report inhibition for every entry that follows.
1. COCCSc1nnc(NC(=O)Cc2c(F)cccc2Cl)s1
2. C=C1C2(C(=O)Nc3nc4ccc(Br)cc4s3)CCC(C2)C1(C)C (stereo not given)
3. Cn1cc(C2CC(=O)N(c3c(Cl)cccc3Cl)C2=O)c2ccccc21 (stereo not given)
4. CCOc1ccc2ccccc2c1C(=O)NCc1cccs1
5. CCSc1nnc(NC(=O)c2ccc(Br)s2)s1
6. COc1cccc(-c2cc(C(F)(F)F)n3ncc(C(=O)OC(C)C)c3n2)c1

-1.31
-1.19
3.05
2.9
-10.2
15.9

Please report inhibition for every entry that follows.
1. CN(CCc1ccccn1)S(=O)(=O)c1ccccc1
2. CC(C)CC(C(=O)Oc1ccc2c3c(c(=O)oc2c1)CCC3)N1C(=O)c2ccccc2C1=O (stereo not given)
3. CC(C)(C)OC(=O)NNC(=O)Nc1ccccc1C(F)(F)F
4. COc1cccc(/C=C/C2=NN(c3ccc(Cl)c(Cl)c3)C(c3cccc(OC)c3OC)C2)c1OC (stereo not given)
5. COc1ccc(Br)cc1CNCc1cccs1
6. Cc1cc(Br)c(NC(=O)CSc2ccc(Cl)cc2)cc1C
7. CC(CCc1ccccc1)NC(=O)c1cccnc1 (stereo not given)
8. COc1ccc(Cl)cc1NC(=S)Nc1cccc(C)n1

1. -3.86
2. -2.25
3. 31.8
4. 13.6
5. 24.4
6. 5.67
7. -1.57
8. -16.2

Attribution: PubChem BioAssay AID588778
